Cited source: patent US11008314B2

- system-under-test: BTK (Homo sapiens (Human))
- method-notes: IC50 against BTK
- Assay type: biochemical
# IC50 values compiled below
assay-endpoint: IC50

>>> result("C=CC(=O)N1CCCN(C(=O)c2cc(Sc3cnc(NC(=O)c4cccc(CN5CCOCC5)c4)s3)c(C)cc2OC)CC1")
"1000 to 10000 nM"
>>> result("C=CC(=O)N1CCN(C(=O)c2cc(Sc3cnc(NC(=O)c4cnsc4)s3)c(C)cc2OC)C[C@H]1CC")
"100 to 1000 nM"
>>> result("C=CC(=O)N1CCN(C(=O)c2cc(Sc3cnc(NC(=O)C4CC4)s3)c(C)cc2OC)CC1(C)C")
"100 to 1000 nM"
>>> result("C=CC(=O)N1CCN(C(=O)c2cc(Sc3cnc(NC(=O)c4ccn(C)c4)s3)c(C)cc2OC)C[C@H]1CC")
"100 to 1000 nM"

###

- system-under-test: BTK (Homo sapiens (Human), UniProt Q06187)
- Sequence (Q06187 whole entry, species assumed): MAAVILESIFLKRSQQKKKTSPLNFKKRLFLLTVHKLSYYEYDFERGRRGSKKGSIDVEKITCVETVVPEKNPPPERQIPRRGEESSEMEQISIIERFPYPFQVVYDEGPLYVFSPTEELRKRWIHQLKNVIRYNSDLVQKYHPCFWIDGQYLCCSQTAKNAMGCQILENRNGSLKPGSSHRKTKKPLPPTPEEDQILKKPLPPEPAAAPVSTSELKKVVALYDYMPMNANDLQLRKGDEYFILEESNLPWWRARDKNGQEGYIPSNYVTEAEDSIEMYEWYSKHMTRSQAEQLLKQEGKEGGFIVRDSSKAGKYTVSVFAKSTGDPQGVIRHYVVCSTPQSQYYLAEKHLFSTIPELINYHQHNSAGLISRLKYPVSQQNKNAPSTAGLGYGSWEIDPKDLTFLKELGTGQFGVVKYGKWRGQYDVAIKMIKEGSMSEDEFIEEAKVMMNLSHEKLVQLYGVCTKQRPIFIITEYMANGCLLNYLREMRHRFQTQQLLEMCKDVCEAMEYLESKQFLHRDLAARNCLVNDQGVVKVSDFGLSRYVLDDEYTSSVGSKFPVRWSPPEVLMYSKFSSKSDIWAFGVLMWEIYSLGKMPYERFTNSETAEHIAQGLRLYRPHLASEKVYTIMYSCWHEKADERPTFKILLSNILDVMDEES
- method-notes: IC50 against BTK
- Format: biochemical
Measured IC50, listed per entry for reference.
assay-endpoint: IC50

>>> result("C=CC(=O)N1CCN(C(=O)c2cc(Sc3cnc(Nc4ccccn4)s3)c(C)cc2C)CC1 [Compound 133]")
"10 to 100 nM"
>>> result("C=CC(=O)N1CCN(C(=O)c2cc(Sc3cnc(NC(=O)c4cccc(CN(C)C)c4)s3)c(C)cc2OC)CC(F)C1 (stereo not shown) [Compound 66]")
"100 to 1000 nM"
>>> result("C=CC(=O)N1CCCN(C(=O)c2cc(Sc3cnc(NC(=O)c4cnsc4)s3)c(C)cc2OC)C[C@H]1CC [Compound 121]")
"100 to 1000 nM"
>>> result("COc1cc(C)c(Sc2cnc(NC(=O)C3CC3)s2)cc1C(=O)N1CCN(C(=O)/C=C/CN(C)C)CC1 [Compound 3]")
"1000 to 10000 nM"

###

# IC50 listing for each entry below
- system-under-test: ITK (Homo sapiens (Human))
- Sequence (Q08881 whole entry): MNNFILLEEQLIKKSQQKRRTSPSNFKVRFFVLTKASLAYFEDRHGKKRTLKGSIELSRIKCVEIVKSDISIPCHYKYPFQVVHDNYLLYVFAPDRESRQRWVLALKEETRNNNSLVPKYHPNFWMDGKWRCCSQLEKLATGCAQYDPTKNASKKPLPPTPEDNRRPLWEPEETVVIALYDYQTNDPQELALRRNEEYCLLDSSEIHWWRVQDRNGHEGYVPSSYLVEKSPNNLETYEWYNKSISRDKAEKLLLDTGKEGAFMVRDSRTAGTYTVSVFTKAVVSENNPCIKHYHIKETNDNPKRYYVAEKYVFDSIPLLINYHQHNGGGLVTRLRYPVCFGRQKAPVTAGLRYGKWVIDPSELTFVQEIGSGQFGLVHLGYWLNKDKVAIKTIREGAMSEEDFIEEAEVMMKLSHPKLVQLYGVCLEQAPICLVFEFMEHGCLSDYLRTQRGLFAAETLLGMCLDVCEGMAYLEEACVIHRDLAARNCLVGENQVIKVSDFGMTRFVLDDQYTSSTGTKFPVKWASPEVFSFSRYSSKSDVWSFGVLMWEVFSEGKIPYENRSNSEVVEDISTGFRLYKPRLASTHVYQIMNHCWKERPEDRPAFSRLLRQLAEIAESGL
- method-notes: IC50 against ITK
- Assay type: biochemical
assay-endpoint: IC50

>>> result("C=CC(=O)N1CCN(C(=O)c2cc(Sc3cnc(NC(=O)c4cnn(CCN(C)C)c4)s3)c(C)cc2OC)CC1 [Compound 102]")
"< 10 nM"
>>> result("C=CC(=O)N1CCN(C(=O)c2cc(Sc3cnc(NC(=O)c4cnn(CCN(C)C)c4)s3)c(C)cc2OC)C[C@H]1CC [Compound 116]")
"< 10 nM"
>>> result("C=CC(=O)N1CCN(C(=O)c2cc(Sc3cnc(NC(=O)c4ccc(N5CCN(C(=O)OC(C)(C)C)CC5)cc4)s3)c(C)cc2OC)CC1 [Compound 40]")
"< 10 nM"
>>> result("C=CC(=O)N1CCN(C(=O)c2cc(Sc3cnc(NC(C)=O)s3)c(C)cc2OC)[C@H](C)C1 [Compound 10]")
"10 to 100 nM"

###

- system-under-test: BTK (Homo sapiens (Human), UniProt Q06187)
- method-notes: IC50 against BTK
- Format: biochemical
assay-endpoint: IC50

>>> result("C=CC(=O)N1CC[C@@H](N(C)C(=O)c2cc(Sc3cnc(NC(=O)C4CC4)s3)c(C)cc2OC)C1")
"< 10 nM"
>>> result("C=CC(=O)N1CCN(C(=O)c2cc(Sc3cnc(NC(=O)C4CC4)s3)c(Cl)cc2C)C[C@H]1CC")
"≥ 10000 nM"
>>> result("C=CC(=O)N1CCN(C(=O)c2cc(Sc3cnc(NC(C)=O)s3)c(C)cc2OC)[C@H](C)C1")
"100 to 1000 nM"
>>> result("C=CC(=O)N1CCN(C(=O)c2cc(Sc3cnc(NC(=O)c4cocn4)s3)c(C)cc2OC)CC1")
"100 to 1000 nM"
>>> result("C=CC(=O)N1CCN(C(=O)c2cc(C(C)c3cnc(Nc4ccccn4)s3)c(C)cc2OC)CC1 (stereo not shown)")
"< 10 nM"
>>> result("C=CC(=O)N1CCCN(C(=O)c2cc(Sc3cnc(NC(=O)C4CC4)s3)c(C)cc2CC)C[C@H]1C")
"100 to 1000 nM"
>>> result("C=CC(=O)N1CCCN(C(=O)c2cc(Sc3cnc(NC(=O)c4ccsc4)s3)c(C)cc2OC)C[C@H]1CC")
"100 to 1000 nM"

###

- system-under-test: TXK (Homo sapiens (Human), UniProt P42681)
- Sequence (P42681 whole entry, species assumed): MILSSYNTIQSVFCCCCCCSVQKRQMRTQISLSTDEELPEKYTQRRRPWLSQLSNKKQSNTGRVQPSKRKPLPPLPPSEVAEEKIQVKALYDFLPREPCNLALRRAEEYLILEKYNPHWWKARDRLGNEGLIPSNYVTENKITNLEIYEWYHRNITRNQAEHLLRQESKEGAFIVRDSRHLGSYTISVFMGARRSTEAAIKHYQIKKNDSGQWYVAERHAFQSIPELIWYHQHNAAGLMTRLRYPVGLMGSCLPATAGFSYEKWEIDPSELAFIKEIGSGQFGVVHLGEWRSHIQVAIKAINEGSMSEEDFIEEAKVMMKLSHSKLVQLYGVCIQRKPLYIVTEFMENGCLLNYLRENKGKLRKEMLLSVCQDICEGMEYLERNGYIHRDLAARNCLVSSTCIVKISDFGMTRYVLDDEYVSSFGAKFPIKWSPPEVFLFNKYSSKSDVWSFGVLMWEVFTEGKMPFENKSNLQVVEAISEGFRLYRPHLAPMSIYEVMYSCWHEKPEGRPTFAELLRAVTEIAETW
- method-notes: IC50 against TXK
- Format: biochemical
assay-endpoint: IC50

>>> result("C=CC(=O)N1CCN(C(=O)c2cc(Sc3cnc(NC(=O)c4ccsc4)s3)c(C)cc2OC)CC1(C)C")
"10 to 100 nM"
>>> result("C=CC(=O)N1CCN(C(=O)c2cc(Sc3cnc(NC(=O)c4ccc(N5CCN(C(=O)CCOCCOCCOCCOCCNC(=O)CCCCC6SCC7NC(=O)NC76)CC5)cc4)s3)c(C)cc2OC)CC1 (stereo not shown)")
"10 to 100 nM"
>>> result("C=CC(=O)N1CCN(C(=O)c2cc(Sc3cnc(Nc4ncc(C)nc4C)s3)c(C)cc2C)CC1")
"10 to 100 nM"
>>> result("C=CC(=O)N1CCN(C(=O)c2cc(Sc3cnc(NC(=O)C4CC4)s3)c(C)cc2C)C[C@H]1CC")
"10 to 100 nM"
>>> result("C=CC(=O)N1CCCN(C(=O)c2cc(Sc3cnc(NC(=O)c4cccc(CN5CCOCC5)c4)s3)c(C)cc2OC)CC1")
"1000 to 10000 nM"
>>> result("C=CC(=O)N1CCN(C(=O)c2cc(Sc3cnc(NC(=O)c4cnn(C)c4)s3)c(C)cc2OC)C[C@H]1CC")
"10 to 100 nM"
>>> result("C=CC(=O)N1CCN(C(=O)c2cc(Sc3cnc(NC(=O)C4CC4)s3)c(C)cc2OC)C(C)(C)C1")
"< 10 nM"

###

IC50 values by entry
- system-under-test: JAK3 (Homo sapiens (Human))
- Sequence (P52333 whole entry, species assumed): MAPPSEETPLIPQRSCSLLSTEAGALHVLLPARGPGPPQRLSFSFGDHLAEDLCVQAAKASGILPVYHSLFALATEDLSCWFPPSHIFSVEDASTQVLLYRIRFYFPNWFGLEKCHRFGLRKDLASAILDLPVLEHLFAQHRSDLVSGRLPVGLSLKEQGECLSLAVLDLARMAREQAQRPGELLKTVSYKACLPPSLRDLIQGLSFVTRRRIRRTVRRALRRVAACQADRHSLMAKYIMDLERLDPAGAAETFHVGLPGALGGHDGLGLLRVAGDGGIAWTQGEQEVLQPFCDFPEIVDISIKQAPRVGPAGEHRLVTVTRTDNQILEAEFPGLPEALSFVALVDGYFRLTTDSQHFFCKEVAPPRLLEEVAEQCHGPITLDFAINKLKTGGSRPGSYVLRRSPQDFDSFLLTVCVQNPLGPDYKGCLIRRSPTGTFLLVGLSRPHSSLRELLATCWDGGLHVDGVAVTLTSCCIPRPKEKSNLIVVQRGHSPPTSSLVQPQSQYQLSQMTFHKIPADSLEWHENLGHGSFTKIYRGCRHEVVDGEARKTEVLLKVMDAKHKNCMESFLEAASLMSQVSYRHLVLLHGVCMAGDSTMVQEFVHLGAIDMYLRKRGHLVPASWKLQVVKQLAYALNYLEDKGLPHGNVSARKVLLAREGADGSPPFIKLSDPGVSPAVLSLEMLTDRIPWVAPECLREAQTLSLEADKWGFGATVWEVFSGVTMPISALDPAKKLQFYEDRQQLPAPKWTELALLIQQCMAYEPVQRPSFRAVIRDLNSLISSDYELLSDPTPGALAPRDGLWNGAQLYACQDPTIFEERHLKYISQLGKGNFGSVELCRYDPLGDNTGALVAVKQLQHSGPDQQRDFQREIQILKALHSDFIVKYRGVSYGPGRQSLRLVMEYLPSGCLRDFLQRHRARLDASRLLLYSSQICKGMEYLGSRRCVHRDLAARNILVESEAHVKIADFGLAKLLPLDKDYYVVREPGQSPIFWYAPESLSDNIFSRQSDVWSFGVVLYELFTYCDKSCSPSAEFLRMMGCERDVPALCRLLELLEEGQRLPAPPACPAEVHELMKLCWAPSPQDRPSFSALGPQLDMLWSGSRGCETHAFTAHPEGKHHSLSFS
- method-notes: IC50 against JAK3
- Assay type: biochemical
assay-endpoint: IC50

>>> result("C=CC(=O)N1CCN(C(=O)c2cc(Sc3cnc(NC(=O)C4CC4)s3)c(C)cc2OC)C[C@H]1C")
"100 to 1000 nM"
>>> result("C=CC(=O)N1C[C@@H]2C[C@H]1CN2C(=O)c1cc(Sc2cnc(NC(C)=O)s2)c(C)cc1OC")
"100 to 1000 nM"
>>> result("C=CC(=O)N1CCN(C(=O)c2cc(Sc3cnc(NC(=O)C4CC4)s3)c(C)cc2OC)CC(F)C1 (stereo not drawn)")
"10 to 100 nM"
>>> result("C=CC(=O)N1CCCN(C(=O)c2cc(Sc3cnc(NC(=O)c4ccsc4)s3)c(C)cc2C)C[C@H]1CC")
"100 to 1000 nM"
>>> result("C=CC(=O)N1CCN(C(=O)c2cc(Sc3cnc(NC(=O)c4nccn4C)s3)c(C)cc2OC)CC1")
"100 to 1000 nM"
>>> result("C=CC(=O)N1CCN(C(=O)c2cc(Sc3cnc(NC(=O)C4CC4)s3)c(C)cc2OC)CC[C@H]1C")
"1000 to 10000 nM"
>>> result("C=CC(=O)N1CCCN(C(=O)c2cc(Sc3cnc(NC(=O)C4CC4)s3)c(C)cc2Cl)C[C@H]1C")
"1000 to 10000 nM"
>>> result("COc1cc(C)c(Sc2cnc(NC(=O)C3CC3)s2)cc1C(=O)N1CCCN(C(=O)/C=C/CN(C)C)[C@H](C)C1")
"≥ 10000 nM"
>>> result("C=CC(=O)N1C[C@@H]2C[C@H]1CN2C(=O)c1cc(Sc2cnc(NC(=O)C3CC3)s2)c(C)cc1OC")
"10 to 100 nM"
>>> result("C=CC(=O)N1CCN(C(=O)c2cc(Sc3cnc(NC(=O)C4CCCC4)s3)c(C)cc2OC)CC1")
"1000 to 10000 nM"
>>> result("C=CC(=O)N1C[C@H]2CC[C@@H](C1)N2C(=O)c1cc(Sc2cnc(NC(C)=O)s2)c(C)cc1OC")
"10 to 100 nM"
>>> result("C=CC(=O)N1CCN(C(=O)c2cc(Sc3cnc(Nc4ncc(C)cc4C)s3)c(C)cc2C)CC1")
"100 to 1000 nM"
>>> result("C=CC(=O)N1CCN(C(=O)c2cc(Sc3cnc(NC(=O)c4cn(C)cn4)s3)c(C)cc2OC)CC1")
"1000 to 10000 nM"
>>> result("C=CC(=O)N1CC[C@@H](N(C)C(=O)c2cc(Sc3cnc(NC(=O)c4ccsc4)s3)c(C)cc2OC)C1")
"< 10 nM"
>>> result("C=CC(=O)N1CCN(C(=O)c2cc(Sc3cnc(NC(=O)C4CC4)s3)c(C)cc2C)C[C@H]1C#N")
"< 10 nM"

###

- system-under-test: TXK (Homo sapiens (Human))
- method-notes: IC50 against TXK
- Type: biochemical
Collected IC50 values appear next to each entry.
assay-endpoint: IC50

>>> result("C=CC(=O)N1CCN(C(=O)c2cc(Sc3cnc(NC(=O)c4nccn4C)s3)c(C)cc2OC)CC1")
"10 to 100 nM"
>>> result("C=CC(=O)N1CCC2(C1)CN(C(=O)c1cc(Sc3cnc(NC(=O)c4ccsc4)s3)c(C)cc1OC)C2")
"< 10 nM"
>>> result("C=C(CN(C)C)C(=O)N1CCCN(C(=O)c2cc(Sc3cnc(NC(=O)C4CC4)s3)c(C)cc2OC)C[C@H]1C")
"≥ 10000 nM"
>>> result("C=CC(=O)N1CCN(C(=O)c2cc(Sc3cnc(NC(=O)c4cnsc4)s3)c(C)cc2OC)CC1")
"10 to 100 nM"
>>> result("C=CC(=O)N1CCN(C(=O)c2cc(Sc3cnc(NC(=O)c4cccnc4)s3)c(C)cc2OC)CC1")
"100 to 1000 nM"
>>> result("C=CC(=O)N1CCN(C(=O)c2cc(Sc3cnc(NC(=O)C4CC4)s3)c(F)cc2C)C[C@H]1C")
"100 to 1000 nM"
>>> result("C=CC(=O)N1CCN(C(=O)c2cc(Sc3cnc(NC(=O)c4cccc(CN(C)C)c4)s3)c(C)cc2C)C[C@H]1C#N")
"< 10 nM"
>>> result("C=CC(=O)N1CCN(C(=O)c2cc(Sc3cnc(NC(=O)c4ccsc4)s3)c(C)cc2OC)C[C@H]1C#N")
"< 10 nM"
>>> result("C=CC(=O)N1CCN(C(=O)c2cc(Sc3cnc(NC(=O)C4CC4)s3)c(Cl)cc2C)C[C@H]1C")
"100 to 1000 nM"
>>> result("C=CC(=O)N1CCN(C(=O)c2cc(Sc3cnc(NC(=O)C4CC4)s3)c(C)cc2OC)C[C@H]1C")
"10 to 100 nM"
>>> result("C=CC(=O)N1CCCN(C(=O)c2cc(Sc3cnc(NC(=O)C(C)C)s3)c(C)cc2OC)CC1")
"1000 to 10000 nM"
>>> result("C=CC(=O)N1CCN(C(=O)c2cc(Sc3cnc(NC(=O)c4ccsc4)s3)c(C)cc2OC)C[C@H]1CC")
"10 to 100 nM"
>>> result("COc1cc(C)c(Sc2cnc(NC(=O)C3CC3)s2)cc1C(=O)N1CCCN(C(=O)/C=C/CN(C)C)[C@H](C)C1")
"≥ 10000 nM"
>>> result("C=CC(=O)N1CCN(C(=O)c2cc(Sc3cnc(NC(=O)C4CC4)s3)c(C)cn2)CC1")
"≥ 10000 nM"
>>> result("C=CC(=O)N1CCN(C(=O)c2cc(Sc3cnc(NC(=O)c4cnsc4)s3)c(C)cc2OC)C[C@H]1CC")
"10 to 100 nM"
